Target: Class I HLA molecule A*0301 in recombinant form (UniProt P04439 25-302)
Experiment: iTopia ELISA-like peptide-HLA binding
Source text: In order to identify and validate the immunogenic epitopes of the protein VK3-20, the iTopia™ high-throughput Epitope Discovery System was used (Beckman Coulter).
Class met: Bond results at least 2%. Class not met: Bond results below 2%.

> print(dat)
                                     binder  classlabel
1  TQSPGTLSF [VK3-20 peptide No 5 TQSPGTLSF]     not met
2  YLAWYQQKP [VK3-20 peptide No 33 YLAWYQQKP]         met

// query hey, is Bond results for this one >= 2%? GQAPRLLIY [VK3-20 peptide No 42 GQAPRLLIY]
// result met

// query Param item: IVLTQSPGT [VK3-20 peptide No 2 IVLTQSPGT]
// result not met

// query Now the same for QYGSSPRTF [VK3-20 peptide No 91 QYGSSPRTF]
// result not met

// query Likewise for RLLIYGASS [VK3-20 peptide No 46 RLLIYGASS] ?
// result not met

// query // next record QQYGSSPRT [VK3-20 peptide No 90 QQYGSSPRT]
// result met

// query Same lookup for SYLAWYQQK [VK3-20 peptide No 32 SYLAWYQQK] , please.
// result met
